# Target desc: Nuclear receptor subfamily 1 group I member 2 (Homo sapiens, UniProt O75469)
# Sequence (O75469 whole entry): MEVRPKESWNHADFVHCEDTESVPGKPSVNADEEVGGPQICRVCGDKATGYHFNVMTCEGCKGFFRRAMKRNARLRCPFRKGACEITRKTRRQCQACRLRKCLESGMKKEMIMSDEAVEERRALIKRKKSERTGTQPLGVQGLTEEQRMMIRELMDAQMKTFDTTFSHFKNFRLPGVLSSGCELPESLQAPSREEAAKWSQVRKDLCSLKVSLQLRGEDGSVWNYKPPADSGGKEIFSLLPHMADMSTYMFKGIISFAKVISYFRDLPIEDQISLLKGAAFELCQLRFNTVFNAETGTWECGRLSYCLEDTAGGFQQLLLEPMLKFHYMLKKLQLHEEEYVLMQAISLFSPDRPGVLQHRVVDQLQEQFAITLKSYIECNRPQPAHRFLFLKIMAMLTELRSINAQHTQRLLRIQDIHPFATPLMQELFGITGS
# Test method notes: Agonist activity at human PXR expressed in HepG2 cells co-expressing luciferase gene under control of CYP3A4 promoter incubated for 24 hrs by luciferase reporter assay
Parameter: EC50 (nM)
Provide the reading as a plain figure in nM.

What value of EC50 has been reported for the following compound? COc1cc(Br)c(C)cc1-n1nnc(S(=O)(=O)c2ccc(C(C)(C)C)cc2)c1C
1300

What value of EC50 has been reported for the following compound? COc1ccc(OC)c(-n2nnc(S(=O)(=O)c3ccc(Cl)cc3)c2C)c1
2300

What value of EC50 has been reported for the following compound? COc1cc(C)c(Cl)cc1-n1nnc(S(=O)(=O)c2ccc(C(C)(C)C)cc2)c1C
1000

What value of EC50 has been reported for the following compound? COc1ccc(C)cc1-n1nnc(S(=O)(=O)c2ccc(C(C)(C)C)cc2)c1C#N
160

What value of EC50 has been reported for the following compound? COc1ccc(Cl)cc1-n1nnc(S(=O)(=O)c2ccc(C(C)(C)C)cc2)c1N
110

What value of EC50 has been reported for the following compound? COc1ccc([C@@H](C)O)cc1-n1nnc(S(=O)(=O)c2ccc(C(C)(C)C)cc2)c1C
440

What value of EC50 has been reported for the following compound? COc1ccc(C)cc1-n1cc(S(=O)(=O)c2ccc(C(C)(C)C)cc2)nn1
600

What value of EC50 has been reported for the following compound? COC(=O)c1cc(OC)c(-n2nnc(S(=O)(=O)c3ccc(C(C)(C)C)cc3)c2C)cc1Cl
1900

What value of EC50 has been reported for the following compound? COc1ccc(OC)c(-n2nnc(S(=O)(=O)c3ccccc3)c2C)c1
2500

====

# Target desc: PXR (NR1I2) (Homo sapiens)
# Sequence (O75469 whole entry, the tested form may be a part): as the sequence (O75469 whole entry) above
# Test method notes: Displacement of BODIPY FL vindoline from GST-tagged human PXR LBD at 10 uM incubated for 60 mins by TR-FRET assay relative to control
# Protocol conditions: GST-tagged human PXR LBD (recombinant protein), probe BODIPY FL vindoline
Please go through the items and note down their inhibition at 1 h, 10 µM.
Provide the reading as a plain figure in %.

What value of inhibition at 1 h, 10 µM has been reported for the following compound? CCc1cc(OC)c(-n2nnc(S(=O)(=O)c3ccc(C(C)(C)C)cc3)c2C)cc1OC
65

What value of inhibition at 1 h, 10 µM has been reported for the following compound? COc1cc(C(C)=O)c(C)cc1-n1nnc(S(=O)(=O)c2ccc(C(C)(C)C)cc2)c1C
80

What value of inhibition at 1 h, 10 µM has been reported for the following compound? COc1ccc(C)cc1-n1nnc(S(=O)(=O)c2ccc(C(C)(C)C)cc2)c1N
88

What value of inhibition at 1 h, 10 µM has been reported for the following compound? COc1cc(C(C)C)c(Cl)cc1-n1nnc(S(=O)(=O)c2ccc(C(C)(C)C)cc2)c1C
73

What value of inhibition at 1 h, 10 µM has been reported for the following compound? COc1cc(C)c(Cl)cc1-n1nnc(S(=O)(=O)c2ccc(C(C)(C)C)cc2)c1C
87

What value of inhibition at 1 h, 10 µM has been reported for the following compound? COC(=O)c1cc(OC)c(-n2nnc(S(=O)(=O)c3ccc(C(C)(C)C)cc3)c2C)cc1C
64

What value of inhibition at 1 h, 10 µM has been reported for the following compound? COc1ccc(C)cc1-c1nc(C)c(S(=O)(=O)c2ccc(C(C)(C)C)cc2)n1C
73

What value of inhibition at 1 h, 10 µM has been reported for the following compound? COc1cc(-n2nnc(S(=O)(=O)c3ccc(C(C)(C)C)cc3)c2C)c(OC)cc1Cl
73

What value of inhibition at 1 h, 10 µM has been reported for the following compound? COc1ccc(OC)c(-n2nnc(S(=O)(=O)c3ccc(C(C)(C)C)cc3)c2N)c1
85

Where do the numbers come from? From ChEMBL document CHEMBL4834393.
